# assay_details: NCI Yeast Anticancer Drug Screen. Data for the rad50 strain (AID 155);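 also: 0% = growth of vehicle-only cultures of the same strain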
# cond: S. cerevisiae rad50 strain growth inhibition; at 50.0 µM; active compounds read high
About 79,000 compounds went through this panel and 15% of them were active in at least one assay; those are over-represented in the sample as a whole. Calls of active or inactive are those of the source. Rule as the data show it: active = growth inhibition above about 70%; inactive = the rest.
Reported growth inhibition values for the following compounds.

{"compound": "CCOc1cc(/C=C/[N+](=O)[O-])ccc1O", "growth inhibition": "77.2% (active)"}
{"compound": "[Pt].c1ccc(P(CCP(c2ccccc2)c2ccccc2)CCP(c2ccccc2)c2ccccc2)cc1", "growth inhibition": "79% (active)"}
{"compound": "Br[Se]c1ccccn1", "growth inhibition": "99.5% (active)"}
{"compound": "O=C(O)CP(=O)(c1ccccc1)c1ccccc1.O=C(O)CP(=O)(c1ccccc1)c1ccccc1.[Cd]", "growth inhibition": "83.4% (active)"}
{"compound": "O=c1oc2ccccc2c(O)c1C(c1ccc(/C=C/c2ccccc2)cc1)c1c(O)c2ccccc2oc1=O", "growth inhibition": "87.2% (active)"}
{"compound": "CCC1(OC(=O)CN)C(=O)OCc2c1cc1n(c2=O)Cc2cc3ccccc3nc2-1 (stereo unspecified)", "growth inhibition": "98% (active)"}

* * *

# assay_details: NCI Yeast Anticancer Drug Screen. Data for the rad50 strain (AID 155);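 also: 0% = growth of vehicle-only cultures of the same strain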
# cond: S. cerevisiae rad50 strain growth inhibition; at 5.0 µM (retest, dose inferred, filed as 0.5); active compounds read high
# Description: Growth inhibition of yeast strains with defined genetic alterations is measured as a screen for potential anti-cancer activity. Selected strains with alterations in DNA damage repair or cell cycle control were exposed to compounds and growth inhibition was measured relative to vehicle treated controls. The strain used in this assay is rad50
The panel holds about 79,000 compounds, 15% with a hit somewhere; the sample as a whole holds those more often.
Reported growth inhibition values for the following compounds.
experimental_endpoint: growth inhibition (%)

{"compound": "Cc1ccccc1C(=O)CN", "value_reported": -3}
{"compound": "CC#C[P+](c1ccccc1)(c1ccccc1)c1ccccc1", "value_reported": 98}
{"compound": "Cc1cc(N(CCCl)CCCl)ccc1C=Nc1ccc(-c2csc(COc3ccccc3)n2)c(Cl)c1", "value_reported": 4}
{"compound": "O=C(Cl)c1ccccn1", "value_reported": 6}
{"compound": "C/C(=C\\c1ccc2c(c1)OCO2)[N+](=O)[O-]", "value_reported": 93}
{"compound": "CC12CCC(O)CC1CCC1C2CCC2(C)C(C(=O)CC(O)C(F)(F)F)CCC12 (stereo unspecified)", "value_reported": 4}

* * *

# assay_details: NCI Yeast Anticancer Drug Screen. Data for the wt2 strain (AID 169);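 also: 0% = growth of vehicle-treated yeast cultures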
# cond: S. cerevisiae wt2 strain growth inhibition; at 33.0 µM
The panel holds about 79,000 compounds, 15% with a hit somewhere; the sample as a whole holds those more often. Calls of active or inactive are those of the source. Rule as the data show it: active = growth inhibition above about 70%; inactive = the rest.
Possible outcomes: yes for active, no for inactive

{"compound": "COC(=O)C1=C(C(=O)OC)C2OC1c1cc3ccccc3cc12", "label_class": "yes"}
{"compound": "CCCN(CCC)c1c([N+](=O)[O-])cc(S(N)(=O)=O)cc1[N+](=O)[O-]", "label_class": "no"}
{"compound": "C[N+](C)(C)CC1CCCC(C[N+](C)(C)C)C1=O (stereo not drawn)", "label_class": "no"}
{"compound": "O=Cc1ccc(C(F)(F)F)cc1.[C-]#[O+].[C-]#[O+].[C-]#[O+].[Cr]", "label_class": "no"}
{"compound": "COC(=O)C1C2c3ccccc3C(c3ccccc32)C1C(=O)OC (stereo not drawn)", "label_class": "no"}
{"compound": "C[CH2][Sn]1([CH2]C)[O]C2C(O)OC(CO)C(O)C2[O]1 (stereo not drawn)", "label_class": "no"}
{"compound": "Cc1c(N)nc([C@H](CC(N)=O)NC[C@H](N)C(N)=O)nc1C(=O)N[C@H](C(=O)N[C@H](C)[C@@H](O)[C@H](C)C(=O)N[C@H](C(=O)NCCc1nc(-c2nc(C(=O)NCCC[S+](C)C)cs2)cs1)[C@@H](C)O)C(OC1OC(CO)C(O)C(O)C1OC1OC(CO)C(O)C(OC(N)=O)C1O)c1cnc[nH]1 (stereo partly drawn)", "label_class": "no"}
{"compound": "O=C(Nc1cc(Cl)ccc1Cl)C(Cl)(Cl)Cl", "label_class": "no"}
